# GI50 per entry
System: KM12
Test: NCI tumour cell line growth inhibition, 48 h
The source made the active and inactive calls. Rule as the data show it: active = GI50 up to about 1.1 µM and inactive = higher.

# compound, GI50
records = [
    ("CCOC(=O)/C(ON)=C(/CC/C(C(=O)OC)=C(\\ON)C(=O)OCC)C(=O)OC", "> 100 µM (inactive)"),
    ("CCOC(=O)N1CCN(c2nc(C)n(-c3ccccc3)c(=S)c2C#N)CC1", "> 83.8 µM (inactive)"),
    ("CC1(C)C2CCC(O)(C2)C1N (stereo not given)", "> 100 µM (inactive)"),
]

Can you look up GI50 on KM12 for CC(C)=CCC/C(C)=C/COC(C)(C)C1=CCC(C)CC1.CC(C)=CCC/C(C)=C/COC1CC(C)CCC1=C(C)C (stereo not given) ?
> 100 µM (inactive)

Likewise for Nc1ccc(S(=O)(=O)Nc2cnc3ccccc3n2)cc1 [SULFAQUINOXALINE] ?
> 100 µM (inactive)
